- System: Huh-7 HCV replicon cells (1b replicon)
- method-description: anti-HCV activity in Huh-7 cell line harboring a HCV replicon (luciferase readout)
- Format: cell-based
- test-context: Hepatitis C virus, Huh-7, read-out: Replicon 1b % inhibition at 1 μM, 1b replicon, 1 μM compound
# reported inhibition at 1 µM; entries follow
Provide only the numeric value, understood in %.

Worked set:
CC(C)[C@@H]1OC(=O)[C@@](C)(COC(F)F)/C=C/c2ccc3ccc(nc3c2)[C@@H](C)NC(=O)[C@@H]2CCCN(N2)C(=O)[C@H](C)NC1=O [Compound 55] | 100
CCC(=O)O[C@H]1CC[C@@]2(/C=C/c3ccc4ccc(nc4c3)[C@@H](C)NC(=O)[C@@H]3CCCN(N3)C(=O)[C@H](C)NC(=O)[C@H](C(C)C)OC2=O)CC1 [Compound 109] | 99
CC(C)[C@@H]1OCCC/C=C/c2cc3cc(ccc3cn2)[C@@H](C)OC(=O)[C@@H]2CCCN(N2)C(=O)[C@H](C)NC1=O [Compound 23] | 97
CC([C@@H]1OC(=O)C(C)(C)/C=C/c2ccc3ccc(nc3c2)[C@@H](C)NC(=O)[C@@H]2CCCN(N2)C(=O)[C@H](C)NC1=O)C(F)(F)F (some centres unmarked) [Compound 71] | 96

Here is another molecule to look at.
Enquiry: Return inhibition at 1 µM (reported value) for this molecule: CCC(=O)O[C@H]1CC[C@]2(/C=C/c3ccc4ccc(nc4c3)[C@@H](C)NC(=O)[C@@H]3CCCN(N3)C(=O)[C@H](C)NC(=O)[C@H](C(C)C)OC2=O)CC1 [Compound 111]
Return: 99

----------
Hi! I'm sharing some pIC50 results obtained with cyclophilin A (Homo sapiens, UniProt P62937).
Sequence (P62937 whole entry, species assumed): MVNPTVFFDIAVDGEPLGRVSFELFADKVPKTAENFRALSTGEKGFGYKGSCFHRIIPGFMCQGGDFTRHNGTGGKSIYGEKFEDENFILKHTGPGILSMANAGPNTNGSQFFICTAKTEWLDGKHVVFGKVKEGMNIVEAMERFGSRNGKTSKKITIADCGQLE
pIC50: −log10 of the molar value.

CC(C)[C@@H]1N[C@H](C(F)(F)F)C(C)(C)/C=C/c2ccc3ccc(nc3c2)[C@@H](C)OC(=O)[C@@H]2CCCN(N2)C(=O)[C@H](C)NC1=O | > 7.00
CC(C)[C@@H]1OC(=O)C(C)(C)/C=C/c2ccc3ccc(nc3c2)[C@@H](C)N(C)C(=O)[C@@H]2CCCN(N2)C(=O)[C@H](C)NC1=O | > 7.00
C[C@@H]1NC(=O)[C@@H](C2CC2)OC(=O)C(C)(C)/C=C/c2ccc3ccc(nc3c2)[C@@H](C)NC(=O)[C@@H]2CCCN(N2)C1=O | 5.00 to 6.00
CC1NC(=O)C(C2CC2)OC(=O)C2(C=Cc3ccc4ccc(nc4c3)C(C)NC(=O)C3CCCN(N3)C1=O)CCC(O)C2 (single isomer, unassigned) [Compound 105] | 6.00 to 7.00
C[C@@H]1NC(=O)[C@H](C2COC2)OC(=O)C(C)(C)/C=C/c2ccc3ccc(nc3c2)[C@@H](C)NC(=O)[C@@H]2CCCN(N2)C1=O | > 7.00

Would you kindly look at the next entry?
Enquiry: Lab note: cyclophilin A (Homo sapiens, UniProt P62937) assay, enter pIC50 for CC(C)[C@@H]1OC(=O)[C@]2(/C=C/c3ccc4ccc(nc4c3)[C@@H](C)N(C)C(=O)[C@@H]3CCCN(N3)C(=O)[C@H](C)NC1=O)CC[C@H](O)CC2 here
Return: > 7.00

----------
- Tested on: Huh-7 HCV replicon cells (1b replicon)
- method-description: anti-HCV activity in Huh-7 cell line harboring a HCV replicon (luciferase readout)
- Type: cell-based
- test-context: Hepatitis C virus, Huh-7, read-out: Replicon 1b % inhibition at 1 μM, 1b replicon, 1 μM compound
quantity: inhibition at 1 µM (%)
State the answer as a number, implicitly in %.

# annotated cases, reported inhibition at 1 µM shown
C[C@@H]1NC(=O)[C@H](C2CC2)OC(=O)C2(/C=C/c3ccc4ccc(nc4c3)[C@@H](C)NC(=O)[C@@H]3CCCN(N3)C1=O)CCC(O)C2 (some centres unmarked) [Compound 102] | 13
C[C@@H]1NC(=O)[C@H](C(C)(C)C)OC(=O)C(C)(C)/C=C/c2ccc3ccc(nc3c2)[C@@H](C)NC(=O)[C@@H]2CCCN(N2)C1=O [Compound 70] | 57
CC(C)[C@@H]1OC(=O)[C@H](CCC(C)N(C)C)C/C=C/c2cc3cc(ccc3cn2)[C@@H](C)NC(=O)[C@@H]2CCCN(N2)C(=O)[C@H](C)NC1=O (mixture of isomers) [Compound 16] | 20
CC1/C=C/c2ccc3ccc(nc3c2)[C@@H](C)OC(=O)[C@@H]2CCCN(N2)C(=O)[C@H](C)NC(=O)[C@H](C(C)C)OC1 (single isomer, unassigned) [Compound 27] | 92

// next entry
Enquiry: Return value of inhibition at 1 µM for input CC(C)[C@@H]1NCCC/C=C/c2cc3cc(ccc3cn2)[C@@H](C)OC(=O)[C@@H]2CCCN(N2)C(=O)[C@H](C)NC1=O [Compound 20] , no commentary.
Return: 88
